B1: CPEB3 Ribozyme (parent)
chain: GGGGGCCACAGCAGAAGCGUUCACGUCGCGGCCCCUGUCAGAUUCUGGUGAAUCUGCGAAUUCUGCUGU

- Variants of: B1
- ASSAY_INFO: self-cleavage, relative activity (ratio to wild type); higher = more cleavage; co-transcriptional
QUANTITY_MEASURED: self-cleavage

Here's what some known entries look like.
MUTANT_DESIGNATION	self-cleavage
U44C C63A	0.542
U38G A51U	0.295

In: Recorded self-cleavage for C35G A52G , please?
Out: 0.458

In: Bench note: what self-cleavage did G25C U46C show?
Out: 0.218
